# system: T1, recombinant hPEPT1 receptor domain (human PEPT1, amino acid residues 391-571), His-tag fusion protein (human) (UniProt P46059)
# T1 sequence: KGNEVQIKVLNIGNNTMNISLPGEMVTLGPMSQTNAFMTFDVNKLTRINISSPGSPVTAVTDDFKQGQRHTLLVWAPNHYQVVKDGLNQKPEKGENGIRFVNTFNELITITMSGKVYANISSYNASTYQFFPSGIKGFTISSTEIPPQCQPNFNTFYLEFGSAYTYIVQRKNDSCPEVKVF
# experiment.notes: phage ELISA, OD on hPEPT1 over OD on BSA
Ends that are not written are not given here.
Property: PEPT1/BSA; scope: individual binders

binder	PEPT1/BSA
SSKVSSPRDPTVPRKGGNVDYGCGHRSSARMPTSALSSITKCYT (peptide, not shown: large carriers, cysteine pairing not given here; also: displayed as N-terminal pIII fusion on M13 phage) [phage PAX38]	5
SYCRVKGGGEGGHTDSNLARSGCGKVARTSRLQHINPRATPPSR (peptide, not shown: large carriers) [phage PAX15]	4
RWGWERSPSDYDSDMDLGARRYATRTHRAPPRVLKAPLP (peptide, not shown: large carriers, also: displayed as N-terminal pIII fusion on M13 phage) [phage 5PAX7]	5
RPKNVADAYSSQDGAAAEETSHASNAARKSPKHKPLRRP (peptide, not shown: large carriers, also: displayed as N-terminal pIII fusion on M13 phage) [phage 5PAX3]	4
RWCEKHKFTAARCSAGAGFERDASRPPQPAHRDNTNRNA (peptide, not shown: large carriers, cysteine pairing not given here; also: displayed as N-terminal pIII fusion on M13 phage) [phage PAX43]	5
RGSTGTAGGERSGVLNLHTRDNASGSGFKPWYPSNRGHK (peptide, not shown: large carriers, also: displayed as N-terminal pIII fusion on M13 phage) [phage 5PAX5]	4
RWPSVGYKGNGSDTIDVHSNDASTKRSLIYNHRRPLFP (peptide, not shown: large carriers) [phage PAX9]	4
